Recorded CC50 at 6 days, one value per entry.
test: Cytotoxicity determination in HepG2.2.15 cells (CCK-8); format: cell-based; conditions: human, 6 days treatment, CCK-8, highest concentration 100 uM
Property measured: CC50 at 6 days (µM)

- COC(=O)C1=C([C@H]2CC[C@H](c3nc(CC(C)(C)C(=O)O)co3)CC2)NC(c2nccs2)=NC1c1ccc(F)c(F)c1Cl (single isomer, unassigned) [Compound I-25-B]: 7.9
- COC(=O)C1=C([C@H]2CC[C@H](c3nc(CC(=O)O)co3)CC2)NC(c2nccs2)=NC1c1cccc(F)c1C (single isomer, unassigned) [Compound I-21-B]: 8.04
- CCOC(=O)C1=C(C2CCN(c3cnc(C)c(C(=O)O)n3)CC2)NC(c2nccs2)=NC1c1ccc(F)c(F)c1Cl (single isomer, unassigned) [II-48-B]: 12.9
- CCOC(=O)C1=C([C@H]2CC[C@H](c3nc(CC(=O)O)co3)CC2)NC(c2nccs2)=NC1c1ccc(F)c(F)c1Cl (single isomer, unassigned) [Compound I-23-B]: 5.48
- CCOC(=O)C1=C(C2CCN(c3nc(C(=O)O)co3)CC2)NC(c2nccs2)=NC1c1ccc(F)c(F)c1Cl (single isomer, unassigned) [II-70-B]: 11.8
- COC(=O)C1=C(C2CCN(c3ccc(CCC(=O)O)cn3)CC2)NC(c2nccs2)=NC1c1ccc(F)cc1Cl (single isomer, unassigned) [II-101-B]: 16.6
- COC(=O)C1=C(C2CCN(c3ncc(C)c(C(=O)O)n3)CC2)NC(c2nccs2)=NC1c1cccc(F)c1Cl (single isomer, unassigned) [II-8-B]: 19
- CCOC(=O)C1=C([C@H]2CC[C@H](Cc3nc(C(=O)O)co3)CC2)NC(c2nccs2)=NC1c1ccc(F)c(F)c1Cl (single isomer, unassigned) [Compound I-15-A]: 6.27
- COC(=O)C1=C([C@H]2CC[C@H](c3nc(C(=O)O)co3)CC2)NC(c2nccs2)=NC1c1cccc(F)c1C (single isomer, unassigned) [Compound I-3-D]: 14.2
- CCOC(=O)C1=C([C@H]2CC[C@H](c3cn(CCC(=O)O)nc3C)CC2)NC(c2nccs2)=NC1c1ccc(F)c(F)c1Cl (single isomer, unassigned) [Compound I-33-C]: 2.97
- CCOC(=O)C1=C([C@H]2CC[C@H](c3ncc(C(=O)O)cn3)CC2)NC(c2nccs2)=NC1c1ccc(F)c(F)c1Cl (single isomer, unassigned) [Compound I-40-A]: 4.43
- COC(=O)C1=C(C23CC(c4nc(C(=O)O)co4)(C2)C3)NC(c2nccs2)=NC1c1ccc(F)c(F)c1Cl (single isomer, unassigned) [Compound I-8-B]: 26.6
